drug sensitivity score listing for selected compounds.
Tested on: HDQ-P1
assay-protocol: drug sensitivity score (DSS), CellTiter-Blue viability (DSS (AUC-based score)); higher = stronger viability inhibition; extreme values may be limits of the assay
measurement-setup: incubation time: 72 h
Could you respond with only the numeric value?

Use these answered entries as a reference point.
# compound, drug sensitivity score
rows = [
    ("COC(=O)C[C@](O)(CCCC(C)(C)O)C(=O)O[C@@H]1C(OC)=C[C@]23CCCN2CCc2cc4c(cc2[C@H]13)OCO4 [Omacetaxine]", 30.7),
    ("O=c1[nH]c(=O)n([C@H]2C[C@H](O)[C@@H](CO)O2)cc1F [Floxuridine]", 0),
    ("CC(=O)O[C@H]1C(=O)[C@@]2(C)[C@H]([C@H](OC(=O)c3ccccc3)[C@]3(O)C[C@H](OC(=O)[C@H](O)[C@@H](NC(=O)c4ccccc4)c4ccccc4)C(C)=C1C3(C)C)[C@]1(OC(C)=O)CO[C@@H]1C[C@@H]2O [Paclitaxel]", 20.9),
    ("COc1ccc(C2=N[C@@H](c3ccc(Cl)cc3)[C@@H](c3ccc(Cl)cc3)N2C(=O)N2CCNC(=O)C2)c(OC(C)C)c1 [Nutlin-3]", 0),
    ("COc1cc(Nc2ncc(F)c(Nc3ccc4c(n3)NC(=O)C(C)(C)O4)n2)cc(OC)c1OC [R406]", 0),
    ("CCCC(CCC)C(=O)O [Valproic acid]", 0),
]

Reported drug sensitivity score for CC(C)(C)c1cc(NC(=O)Nc2ccc(-c3cn4c(n3)sc3cc(OCCN5CCOCC5)ccc34)cc2)no1 [Quizartinib] : what is it?
0

Reported drug sensitivity score for O=c1[nH]cc(F)c(=O)[nH]1 [Fluorouracil] : what is it?
0

* * *

drug sensitivity score listing for selected molecules.
System: CAL-120
assay-protocol: drug sensitivity score (DSS), CellTiter-Glo (DSS (AUC-based score)); higher = stronger drug effect (viability inhibition or cytotoxicity); extreme values may be limits of the assay
measurement-setup: incubation time: 72 h
Could you respond with only the numeric value?

Use these answered entries as a reference point.
# compound-smiles, recorded-number
records = [
    ("FC(F)c1nc2ccccc2n1-c1nc(N2CCOCC2)nc(N2CCOCC2)n1", 7.92),
    ("COc1ncc(-c2ccc3nccc(-c4ccnnc4)c3c2)cc1NS(=O)(=O)c1ccc(F)cc1F", 13),
    ("O=C(c1ccc(OCCN2CCCCC2)cc1)c1c(-c2ccc(O)cc2)sc2cc(O)ccc12", 0),
]

Read the next record carefully.
Reported drug sensitivity score for "CN(c1ccccc1CNc1nc(Nc2ccc3c(c2)CC(=O)N3)ncc1C(F)(F)F)S(C)(=O)=O" : what is it?
4.65

* * *

Test system: MDA-MB-231
assay-protocol: normalised response (% of control), CellTiter-Glo; higher = more viable cells (100 = DMSO, 0 = benzethonium chloride kill control)
measurement-setup: incubation time: 72 h
recorded-endpoint: normalised response (%)
Value expressed in %; do not type the unit.

Use these answered entries as a reference point.
# compound, system, unit-abbrev, recorded-number
records = [
    ("C[C@@H]1C=C2C(=O)O[C@@H]3CC[C@H](C1)[C@]23O [Galiellalactone] (5000 nM)", "MDA-MB-231", "%", 114),
    ("O=c1[nH]c(=O)n([C@H]2C[C@H](O)[C@@H](CO)O2)cc1F [Floxuridine] (1000 nM)", "MDA-MB-231", "%", 76.8),
    ("COC(=O)C[C@](O)(CCCC(C)(C)O)C(=O)O[C@@H]1C(OC)=C[C@]23CCCN2CCc2cc4c(cc2[C@H]13)OCO4 [Omacetaxine] (10 nM)", "MDA-MB-231", "%", 105),
    ("FC(F)c1nc2ccccc2n1-c1nc(N2CCOCC2)nc(N2CCOCC2)n1 [ZSTK474] (10 nM)", "MDA-MB-231", "%", 89.9),
    ("Cn1c(=O)c(F)c(Nc2ccc(I)cc2F)c2c(=O)n(C[C@@H](O)CO)cnc21 [TAK-733] (100 nM)", "MDA-MB-231", "%", 78),
]

Reported normalised response for CC(=O)O[C@H]1C(=O)[C@@]2(C)[C@H]([C@H](OC(=O)c3ccccc3)[C@]3(O)C[C@H](OC(=O)[C@H](O)[C@@H](NC(=O)c4ccccc4)c4ccccc4)C(C)=C1C3(C)C)[C@]1(OC(C)=O)CO[C@@H]1C[C@@H]2O [Paclitaxel] (0.1 nM) : what is it?
96.6

These entries and their values trace back to the supplement of paper PMC4862054.
